Tested on: Receptor-type tyrosine-protein kinase FLT3 (Homo sapiens), P36888 [UNDEFINED MUTATION]
Sequence (P36888 whole entry, looked up, change not shown): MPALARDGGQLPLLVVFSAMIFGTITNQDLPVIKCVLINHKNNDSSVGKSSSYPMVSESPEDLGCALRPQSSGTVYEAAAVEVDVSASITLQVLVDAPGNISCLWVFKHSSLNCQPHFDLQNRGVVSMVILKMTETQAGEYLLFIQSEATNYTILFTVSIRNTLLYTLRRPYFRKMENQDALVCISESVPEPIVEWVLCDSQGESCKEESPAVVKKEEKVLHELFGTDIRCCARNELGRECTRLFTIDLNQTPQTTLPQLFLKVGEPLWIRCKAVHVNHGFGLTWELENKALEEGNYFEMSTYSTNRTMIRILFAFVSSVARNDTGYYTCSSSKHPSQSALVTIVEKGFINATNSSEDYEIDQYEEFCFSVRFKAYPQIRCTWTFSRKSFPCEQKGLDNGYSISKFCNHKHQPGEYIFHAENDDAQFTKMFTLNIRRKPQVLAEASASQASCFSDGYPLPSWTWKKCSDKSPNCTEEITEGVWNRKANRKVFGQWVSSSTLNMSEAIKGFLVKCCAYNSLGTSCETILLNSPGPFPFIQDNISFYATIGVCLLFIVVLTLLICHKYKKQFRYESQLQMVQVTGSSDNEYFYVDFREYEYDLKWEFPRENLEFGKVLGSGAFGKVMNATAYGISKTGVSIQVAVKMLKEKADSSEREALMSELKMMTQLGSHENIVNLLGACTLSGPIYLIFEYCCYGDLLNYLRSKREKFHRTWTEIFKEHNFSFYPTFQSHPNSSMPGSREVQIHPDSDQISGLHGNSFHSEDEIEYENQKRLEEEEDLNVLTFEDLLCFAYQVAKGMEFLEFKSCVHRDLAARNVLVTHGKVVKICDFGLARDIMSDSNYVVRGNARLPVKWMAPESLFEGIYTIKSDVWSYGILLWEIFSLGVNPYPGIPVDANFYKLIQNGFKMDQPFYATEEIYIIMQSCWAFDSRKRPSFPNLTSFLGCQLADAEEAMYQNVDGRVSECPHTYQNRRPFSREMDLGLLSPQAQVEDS
method description: Inhibition of FLT3 ITD mutant (unknown origin) using TAMRA-Src- tide as substrate at 1.25 uM after 1 hr by fluorescence polarization assay relative to control
observation type: inhibition (%)

>>> endpoint_result("COC(=O)[C@@H](Cc1ccccc1)NC(=O)c1c(C)[nH]c(/C=C2\\C(=O)Nc3ccc(C(=O)N[C@H](Cc4ccccc4)C(=O)O)cc32)c1C")
66.4

A = COC(=O)[C@H](Cc1ccccc1)NC(=O)c1c(C)[nH]c(/C=C2\C(=O)Nc3ccc(C(=O)N[C@H](Cc4ccccc4)C(=O)O)cc32)c1C
B = COC(=O)CC[C@H](NC(=O)c1ccc2c(c1)/C(=C/c1[nH]c(C)c(C(=O)N[C@@H](CCC(=O)OC)C(=O)OC)c1C)C(=O)N2)C(=O)OC
// returns A or B , whichever has the lower inhibition Field: selected label. Fill in the label of the entry you choose.
A

====

method description: Lipophilicity, chromatographic hydrophobicity index of the compound at pH 1.2 by HPLC method
Format: physicochemical
cond: buffer
observation type: CHI

>>> endpoint_result("CCN(CC)CCNC(=O)c1c(C)[nH]c(/C=C2\\C(=O)Nc3ccc(F)cc32)c1C")
51
>>> endpoint_result("COC(=O)c1ccc2c(c1)/C(=C/c1[nH]c(C)c(C(=O)N[C@@H](Cc3ccccc3)C(=O)OC)c1C)C(=O)N2")
89
>>> endpoint_result("COC(=O)[C@H](Cc1ccccc1)NC(=O)c1c(C)[nH]c(/C=C2\\C(=O)Nc3ccc(C(=O)N[C@@H](Cc4ccccc4)C(=O)O)cc32)c1C")
81
>>> endpoint_result("COC(=O)CC[C@H](NC(=O)c1ccc2c(c1)/C(=C/c1[nH]c(C)c(C(=O)N[C@@H](CCC(=O)OC)C(=O)OC)c1C)C(=O)N2)C(=O)OC")
65
>>> endpoint_result("Cc1[nH]c(/C=C2\\C(=O)Nc3ccc(C(=O)N[C@@H](Cc4ccccc4)C(=O)O)cc32)c(C)c1C(=O)N[C@@H](Cc1ccccc1)C(=O)O")
70

A = COC(=O)CC[C@H](NC(=O)c1ccc2c(c1)/C(=C/c1[nH]c(C)c(C(=O)O)c1C)C(=O)N2)C(=O)OC
B = CCOC(=O)c1c(C)[nH]c(/C=C2\C(=O)Nc3ccc(C(=O)N[C@@H](Cc4ccccc4)C(=O)OC)cc32)c1C
Between A and B , whose measured CHI reads higher? Field: selected label. Fill in the label of the entry you choose.
B
(B: 99, A: 59)

====

Tested on: Receptor-type tyrosine-protein kinase FLT3 (Homo sapiens), P36888 [UNDEFINED MUTATION]
method description: Inhibition of FLT3 ITD mutant (unknown origin) using TAMRA-Src- tide as substrate at 12.5 uM after 1 hr by fluorescence polarization assay relative to control
observation type: inhibition (%)

>>> endpoint_result("COC(=O)CC[C@H](NC(=O)c1c(C)[nH]c(/C=C2\\C(=O)Nc3ccc(C(=O)N[C@H](CCC(=O)OC)C(=O)OC)cc32)c1C)C(=O)OC")
70.3

a = COC(=O)CC[C@@H](NC(=O)c1ccc2c(c1)/C(=C/c1[nH]c(C)c(C(=O)N[C@@H](Cc3ccccc3)C(=O)OC)c1C)C(=O)N2)C(=O)OC
b = COC(=O)c1ccc2c(c1)/C(=C/c1[nH]c(C)c(C(=O)N[C@@H](Cc3ccccc3)C(=O)OC)c1C)C(=O)N2
Between a and b , whose measured inhibition reads higher? Field: selected label. Fill in the label of the entry you choose.
b
(b: 79.3%, a: 49.6%)

====

method description: Apparent partition coefficient, log P of the compound in n-octanol/aqueous mixture at pH 7.4 after 1 hr by shake flask method
Type: physicochemical
observation type: logD at 1 h

>>> endpoint_result("COC(=O)[C@H](Cc1ccccc1)NC(=O)c1c(C)[nH]c(/C=C2\\C(=O)Nc3ccc(C(=O)O)cc32)c1C")
4.32
>>> endpoint_result("COC(=O)CC[C@@H](NC(=O)c1ccc2c(c1)/C(=C/c1[nH]c(C)c(C(=O)N[C@H](CCC(=O)OC)C(=O)OC)c1C)C(=O)N2)C(=O)OC")
3.36
>>> endpoint_result("COC(=O)[C@@H](Cc1ccccc1)NC(=O)c1ccc2c(c1)/C(=C/c1[nH]c(C)c(C(=O)N[C@@H](Cc3ccccc3)C(=O)O)c1C)C(=O)N2")
5.68
>>> endpoint_result("COC(=O)CC[C@H](NC(=O)c1c(C)[nH]c(/C=C2\\C(=O)Nc3ccc(C(=O)N[C@H](Cc4ccccc4)C(=O)O)cc32)c1C)C(=O)OC")
4.07
>>> endpoint_result("Cc1[nH]c(/C=C2\\C(=O)Nc3ccccc32)c(C)c1CCC(=O)O [ORANTINIB]")
4.6
>>> endpoint_result("COC(=O)CC[C@H](NC(=O)c1ccc2c(c1)/C(=C/c1[nH]c(C)c(C(=O)N[C@@H](Cc3ccccc3)C(=O)O)c1C)C(=O)N2)C(=O)OC")
3.62
>>> endpoint_result("Cc1[nH]c(/C=C2\\C(=O)Nc3ccc(C(=O)N[C@H](Cc4ccccc4)C(=O)O)cc32)c(C)c1C(=O)N[C@@H](Cc1ccccc1)C(=O)O")
5.62
>>> endpoint_result("COC(=O)c1ccc2c(c1)/C(=C/c1[nH]c(C)c(C(=O)N[C@@H](Cc3ccccc3)C(=O)O)c1C)C(=O)N2")
4.73

====

System: Receptor-type tyrosine-protein kinase FLT3 (Homo sapiens), P36888 [UNDEFINED MUTATION]
method description: Inhibition of FLT3 ITD mutant (unknown origin) using TAMRA-Src- tide as substrate at 1.25 uM after 1 hr by fluorescence polarization assay relative to control
observation type: inhibition (%)

Some solved cases for reference:
>>> endpoint_result("COC(=O)[C@H](Cc1ccccc1)NC(=O)c1c(C)[nH]c(/C=C2\\C(=O)Nc3ccc(C(=O)O)cc32)c1C")
85.8
>>> endpoint_result("COC(=O)CC[C@H](NC(=O)c1ccc2c(c1)/C(=C/c1[nH]c(C)c(C(=O)N[C@@H](Cc3ccccc3)C(=O)OC)c1C)C(=O)N2)C(=O)OC")
19.9
>>> endpoint_result("COC(=O)CC[C@H](NC(=O)c1c(C)[nH]c(/C=C2\\C(=O)Nc3ccc(C(=O)N[C@H](Cc4ccccc4)C(=O)O)cc32)c1C)C(=O)OC")
74.2
>>> endpoint_result("COC(=O)CC[C@H](NC(=O)c1ccc2c(c1)/C(=C/c1[nH]c(C)c(C(=O)N[C@H](Cc3ccccc3)C(=O)OC)c1C)C(=O)N2)C(=O)OC")
31.5
>>> endpoint_result("COC(=O)[C@@H](Cc1ccccc1)NC(=O)c1ccc2c(c1)/C(=C/c1[nH]c(C)c(C(=O)O)c1C)C(=O)N2")
76.7
>>> endpoint_result("Cc1[nH]c(/C=C2\\C(=O)Nc3ccc(C(=O)N[C@@H](Cc4ccccc4)C(=O)O)cc32)c(C)c1C(=O)O")
97.4

a = Cc1[nH]c(/C=C2\C(=O)Nc3ccc(C(=O)N[C@H](Cc4ccccc4)C(=O)O)cc32)c(C)c1C(=O)N[C@@H](Cc1ccccc1)C(=O)O
b = CCOC(=O)c1c(C)[nH]c(/C=C2\C(=O)Nc3ccc(C(=O)N[C@@H](Cc4ccccc4)C(=O)OC)cc32)c1C
c = COC(=O)CC[C@@H](NC(=O)c1ccc2c(c1)/C(=C/c1[nH]c(C)c(C(=O)N[C@@H](Cc3ccccc3)C(=O)OC)c1C)C(=O)N2)C(=O)OC
Order these by inhibition, descending, and give the full ranking. Labels, requested order.
a, b, c
(a: 74.2%, b: 25%, c: 8.2%)

====

method description: n-Octanol-buffer distribution coefficient, log D of the compound at pH 5.5 after 1 hr by shake flask method
Type: physicochemical
observation type: logD at 1 h

Some solved cases for reference:
>>> endpoint_result("COC(=O)CC[C@@H](NC(=O)c1ccc2c(c1)/C(=C/c1[nH]c(C)c(C(=O)N[C@H](CCC(=O)OC)C(=O)OC)c1C)C(=O)N2)C(=O)OC")
3.36
>>> endpoint_result("Cc1[nH]c(/C=C2\\C(=O)Nc3ccccc32)c(C)c1CCC(=O)O [ORANTINIB]")
3.18
>>> endpoint_result("COC(=O)[C@@H](Cc1ccccc1)NC(=O)c1ccc2c(c1)/C(=C/c1[nH]c(C)c(C(=O)N[C@@H](Cc3ccccc3)C(=O)O)c1C)C(=O)N2")
3.18
>>> endpoint_result("COC(=O)CC[C@H](NC(=O)c1c(C)[nH]c(/C=C2\\C(=O)Nc3ccc(C(=O)N[C@H](Cc4ccccc4)C(=O)O)cc32)c1C)C(=O)OC")
1.58

P = COC(=O)c1ccc2c(c1)/C(=C/c1[nH]c(C)c(C(=O)N[C@@H](Cc3ccccc3)C(=O)O)c1C)C(=O)N2
Q = COC(=O)CC[C@H](NC(=O)c1ccc2c(c1)/C(=C/c1[nH]c(C)c(C(=O)N[C@@H](Cc3ccccc3)C(=O)O)c1C)C(=O)N2)C(=O)OC
R = COC(=O)[C@H](Cc1ccccc1)NC(=O)c1c(C)[nH]c(/C=C2\C(=O)Nc3ccc(C(=O)O)cc32)c1C
S = Cc1[nH]c(/C=C2\C(=O)Nc3ccc(C(=O)N[C@H](Cc4ccccc4)C(=O)O)cc32)c(C)c1C(=O)N[C@@H](Cc1ccccc1)C(=O)O
Put the items in order so that reported logD at 1 h rises from first to last. Labels, requested order.
S, Q, P, R
(S: 0.62, Q: 1.16, P: 2.23, R: 3.38)
